Values from BindingDB's records for patent US20230348424

assay-system: Son of sevenless homolog 1 [564-1049] (Human, UniProt Q07889)
Sequence (Q07889 564-1049): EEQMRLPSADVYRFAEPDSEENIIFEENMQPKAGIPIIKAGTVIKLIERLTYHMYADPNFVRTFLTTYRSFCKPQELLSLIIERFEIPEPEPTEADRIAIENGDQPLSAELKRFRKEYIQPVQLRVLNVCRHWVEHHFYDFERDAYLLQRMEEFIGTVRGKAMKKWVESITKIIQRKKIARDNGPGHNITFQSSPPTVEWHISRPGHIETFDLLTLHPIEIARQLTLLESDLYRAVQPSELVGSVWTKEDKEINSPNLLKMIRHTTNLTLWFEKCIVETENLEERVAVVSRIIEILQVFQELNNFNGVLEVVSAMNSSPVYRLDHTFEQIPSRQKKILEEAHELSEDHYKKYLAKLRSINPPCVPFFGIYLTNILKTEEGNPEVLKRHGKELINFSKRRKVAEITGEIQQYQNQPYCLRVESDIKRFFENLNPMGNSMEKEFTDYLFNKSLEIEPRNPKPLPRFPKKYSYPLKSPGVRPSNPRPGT
property-name: Kd (nM)
Numeric answer only, unit nM assumed.

Field Kd (Son of sevenless homolog 1 [564-1049] (Human, UniProt Q07889)), entry C[C@@H](NC(=O)c1cn(C2(C(F)(F)F)CC2)c(=O)cc1N[C@H]1[C@@H]2CN(C)C[C@@H]21)c1cccc(C(F)(F)F)c1F [US20230348424, Example 120] : 24
